System: Mycobacterium tuberculosis Erdman (autoluminescent)
Assay: GRinf, maximum normalised growth rate inhibition (unitless (-1 to 1)); higher = less effect (negative = killing)
Conditions: in vitro model: intracellular J774; time point: constant = terminal
assay.metric: GRinf
Give the value as a plain number.

Challenge: Please give the documented GRinf of CO[C@H]1/C=C/O[C@@]2(C)Oc3c(C)c(O)c4c(O)c(c(/C=N/N5CCN(C6CCCC6)CC5)c(O)c4c3C2=O)NC(=O)/C(C)=C\C=C\[C@H](C)[C@H](O)[C@@H](C)[C@@H](O)[C@@H](C)[C@H](OC(C)=O)[C@@H]1C
Response given: -0.197

Challenge: Please give the documented GRinf of O=[N+]([O-])c1cn2c(n1)OC[C@@H](OCc1ccc(OC(F)(F)F)cc1)C2
Response given: -0.539

Challenge: Please give the documented GRinf of CO[C@H]1/C=C/O[C@@]2(C)Oc3c(C)c(O)c4c(O)c(c(/C=N/N5CCN(C)CC5)c(O)c4c3C2=O)NC(=O)/C(C)=C\C=C\[C@H](C)[C@H](O)[C@@H](C)[C@@H](O)[C@@H](C)[C@H](OC(C)=O)[C@@H]1C
Response given: -0.261

Challenge: Please give the documented GRinf of CC(C)/N=c1\cc2n(-c3ccc(Cl)cc3)c3ccccc3nc-2cc1Nc1ccc(Cl)cc1
Response given: -0.696

Challenge: Please give the documented GRinf of CC(=O)NC[C@H]1CN(c2ccc(N3CCOCC3)c(F)c2)C(=O)O1
Response given: -0.297

The measured values listed here are drawn from the supplement of paper PMC8617591.
